Tested on: BT474
Experiment: Cytotoxicity assay (SRB), BT474
Format: cell-based
Conditions: Homo sapiens, BT-474, 144 h, BT474 cells, 6 days, SRB; read-out: In Vitro Cellular Activity IC50 BT474
Recorded measurements of pIC50, one per entry
Keep it numeric: pIC50 is minus log10 of the concentration in mol/L.

molecule	study_system	pIC50
CCCOc1cnc(CN/C=C2\C(=O)NC(=O)c3ccc(C(C)(C)C)cc32)cc1O [Example 530]	BT474	6.62

Lab note: need pIC50 for CN(C)Cc1ccc(C=Cc2ccc3c(c2)C(=CNCc2ccc(O)c(O)c2)C(=O)NC3=O)cc1 [Example 736] on BT474, anyone have it?
4.40

Lab note: need pIC50 for COc1ccc(CNC=C2C(=O)NC(=O)c3ccc(-c4ccc5ccccc5c4)cc32)cc1O [Example 834] on BT474, anyone have it?
4.88

Lab note: need pIC50 for CN(C)c1ccc(-c2ccc3c(c2)C(=CNCc2ccc(O)c(O)c2)C(=O)NC3=O)cc1 [Example 816] on BT474, anyone have it?
5.40

Hello, the source for this data is patent US7713994B2, in case you need it.
